Would you mind telling me the reported IC80 (µg/ml) with constrains of each entry?
Biological target: HIV Env, isolate QH0692.42 (HIV)
Assay: cell-based or functional assay

# binder, parameter.measured, measured.result
records = [
    ("ePGDM13 (antibody, V domains shown) VH: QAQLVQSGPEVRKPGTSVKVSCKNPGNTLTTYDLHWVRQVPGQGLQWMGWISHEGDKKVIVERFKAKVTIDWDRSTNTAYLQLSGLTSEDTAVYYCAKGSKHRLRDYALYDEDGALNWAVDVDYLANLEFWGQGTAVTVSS VL: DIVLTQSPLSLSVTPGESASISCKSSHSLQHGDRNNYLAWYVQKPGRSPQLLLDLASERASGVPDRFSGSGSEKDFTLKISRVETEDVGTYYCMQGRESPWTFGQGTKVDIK", "IC80 (µg/ml) with constrains", "> 100 µg/mL"),
    ("PGDM1400 (antibody, V domains shown) VH: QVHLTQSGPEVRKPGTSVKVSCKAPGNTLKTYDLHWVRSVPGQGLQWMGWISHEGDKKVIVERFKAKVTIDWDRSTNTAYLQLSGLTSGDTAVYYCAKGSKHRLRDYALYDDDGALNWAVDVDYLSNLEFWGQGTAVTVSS VL: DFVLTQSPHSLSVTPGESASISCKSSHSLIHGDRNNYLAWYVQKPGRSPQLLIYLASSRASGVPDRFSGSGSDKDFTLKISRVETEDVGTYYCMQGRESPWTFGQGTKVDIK", "IC80 (µg/ml) with constrains", "> 100 µg/mL"),
    ("ePGDM9 (antibody, V domains shown) VH: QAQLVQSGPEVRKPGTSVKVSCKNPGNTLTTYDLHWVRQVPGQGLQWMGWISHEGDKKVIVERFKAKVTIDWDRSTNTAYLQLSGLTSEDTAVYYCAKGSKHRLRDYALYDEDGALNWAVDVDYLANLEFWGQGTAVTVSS VL: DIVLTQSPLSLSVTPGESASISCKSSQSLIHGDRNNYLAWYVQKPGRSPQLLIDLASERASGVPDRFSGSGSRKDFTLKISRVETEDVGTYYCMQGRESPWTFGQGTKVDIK", "IC80 (µg/ml) with constrains", "> 100 µg/mL"),
]

# input Item ePGDM5 (antibody, V domains shown) VH: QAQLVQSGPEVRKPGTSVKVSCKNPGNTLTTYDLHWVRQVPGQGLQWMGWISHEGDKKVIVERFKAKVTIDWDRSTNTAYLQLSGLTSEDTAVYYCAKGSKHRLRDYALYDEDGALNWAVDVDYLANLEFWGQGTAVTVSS VL: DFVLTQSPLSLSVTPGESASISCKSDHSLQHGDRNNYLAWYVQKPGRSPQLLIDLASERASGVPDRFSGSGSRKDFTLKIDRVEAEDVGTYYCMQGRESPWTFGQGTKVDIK has what recorded IC80 (µg/ml) with constrains?
# output > 100 µg/mL
